# study.system: T1, CD40-Fc recombinant protein (human, UniProt P25942 21-193)
# T1 construct: Soluble staining reagent; also called CD40-Fc protein; not shown: Fc part
# T1 sequence (P25942 21-193 limits assumed): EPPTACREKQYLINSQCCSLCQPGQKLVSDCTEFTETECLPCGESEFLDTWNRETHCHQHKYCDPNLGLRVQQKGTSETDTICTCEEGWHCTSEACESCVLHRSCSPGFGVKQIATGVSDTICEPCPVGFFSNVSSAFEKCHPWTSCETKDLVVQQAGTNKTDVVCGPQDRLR
# assay.details: FACS staining of T cells expressing the anti-CD40 scFv-CD28 fusion with CD40-Fc protein (FIG. 64)
readout.kind: binding result

>>> value_measured("anti-CD40 scFv 40-47 (in LACOSTIM 40-47.28) (scFv, Tested on T cells as part of the LACOSTIM 40-47.28 (scFv fused with CD28), co-electroporated with the anti-Her2 CAR 4D5.BBZ; also called 40-47 scFv) scFv: QSALTQPASVSGSPGQSITISCTGTSSDVGAYNYVSWYQQLPGKTPKLMIYDVTNRPSGVSNRFSGSKSGNTASLTISGLQAEDEAYYYCGSYTTSSTLIFGGGTELTVLGGGGSGGGGSGGGGSEVHLVESGGGLVQPGGSLRLSCAASGFTFSSNWMSWVRQAPGKGLEWVANINQDGSEKYYVDSVKGRFTISRDNAKNSLYLQLNSLRAEDTAEYYCARGGYRYAYWGQGTLVTVSS")
"binds"
